- tested-target: Induced myeloid leukemia cell differentiation protein Mcl-1 (Homo sapiens, UniProt Q07820)
- Sequence (Q07820 whole entry): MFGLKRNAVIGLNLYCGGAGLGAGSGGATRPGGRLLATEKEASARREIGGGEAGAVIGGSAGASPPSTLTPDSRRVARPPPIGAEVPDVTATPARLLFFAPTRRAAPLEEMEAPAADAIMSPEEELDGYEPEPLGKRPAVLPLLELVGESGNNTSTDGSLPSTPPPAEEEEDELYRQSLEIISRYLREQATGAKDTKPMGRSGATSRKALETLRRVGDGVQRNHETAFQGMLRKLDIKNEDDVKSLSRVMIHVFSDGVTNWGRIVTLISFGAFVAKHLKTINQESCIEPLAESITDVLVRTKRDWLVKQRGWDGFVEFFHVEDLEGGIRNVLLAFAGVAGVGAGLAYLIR
- Type: functional
The source made the active and inactive calls.
Known IC50 of a selection of compounds

given-smiles: CS(=O)(=O)c1ccc2c(c1)SC1=NC(=O)/C(=C/c3ccco3)C(=N)N12
IC50: 2840 nM (active)
//
given-smiles: CC(=O)Nc1sc(N/N=C\c2ccc(O)cc2)nc1-c1cccs1
IC50: 2400 nM (active)
//
given-smiles: Cc1cc(C(=O)N/N=C/c2ccc(O)c([N+](=O)[O-])c2)c(C)n1-c1ccc(F)cc1
IC50: 3740 nM (active)
//
given-smiles: COC(=O)c1[nH]c2ccccc2c1/C=C1\C(=O)NC(=O)N(c2ccc(Br)cc2)C1=O
IC50: 9030 nM (active)
//
given-smiles: Cc1cccc2c1c1ccc3c(c1n2C)C(=O)C=CC3=O
IC50: 3220 nM (active)
//
given-smiles: Cc1cc(C)c2nc(-c3ccccn3)cc(C(=O)Nc3ccc(S(=O)(=O)Nc4onc(C)c4C)cc3)c2c1
IC50: 4010 nM (active)
//
given-smiles: O=C1NC(=S)N(c2ccccc2F)C(=O)/C1=C\c1cccs1
IC50: 2070 nM (active)
//
given-smiles: Cc1ccc(N2C(=O)/C(=C\NNc3ccc(S(=O)(=O)N4CCOCC4)cc3[N+](=O)[O-])c3ccccc3C2=O)c(C)c1
IC50: 1800 nM (not active)
//
given-smiles: COc1cc(/C=C2\SC(=S)NC2=O)ccc1OS(=O)(=O)c1ccccc1
IC50: 2790 nM (active)
//
given-smiles: CC(=O)Oc1ccc(NC(=O)CSc2ccccc2)cc1
IC50: < 400 nM (not active)
